- ASSAY SYSTEM: full-length ATR (Homo sapiens (Human), UniProt Q13535)
- Sequence (Q13535 whole entry): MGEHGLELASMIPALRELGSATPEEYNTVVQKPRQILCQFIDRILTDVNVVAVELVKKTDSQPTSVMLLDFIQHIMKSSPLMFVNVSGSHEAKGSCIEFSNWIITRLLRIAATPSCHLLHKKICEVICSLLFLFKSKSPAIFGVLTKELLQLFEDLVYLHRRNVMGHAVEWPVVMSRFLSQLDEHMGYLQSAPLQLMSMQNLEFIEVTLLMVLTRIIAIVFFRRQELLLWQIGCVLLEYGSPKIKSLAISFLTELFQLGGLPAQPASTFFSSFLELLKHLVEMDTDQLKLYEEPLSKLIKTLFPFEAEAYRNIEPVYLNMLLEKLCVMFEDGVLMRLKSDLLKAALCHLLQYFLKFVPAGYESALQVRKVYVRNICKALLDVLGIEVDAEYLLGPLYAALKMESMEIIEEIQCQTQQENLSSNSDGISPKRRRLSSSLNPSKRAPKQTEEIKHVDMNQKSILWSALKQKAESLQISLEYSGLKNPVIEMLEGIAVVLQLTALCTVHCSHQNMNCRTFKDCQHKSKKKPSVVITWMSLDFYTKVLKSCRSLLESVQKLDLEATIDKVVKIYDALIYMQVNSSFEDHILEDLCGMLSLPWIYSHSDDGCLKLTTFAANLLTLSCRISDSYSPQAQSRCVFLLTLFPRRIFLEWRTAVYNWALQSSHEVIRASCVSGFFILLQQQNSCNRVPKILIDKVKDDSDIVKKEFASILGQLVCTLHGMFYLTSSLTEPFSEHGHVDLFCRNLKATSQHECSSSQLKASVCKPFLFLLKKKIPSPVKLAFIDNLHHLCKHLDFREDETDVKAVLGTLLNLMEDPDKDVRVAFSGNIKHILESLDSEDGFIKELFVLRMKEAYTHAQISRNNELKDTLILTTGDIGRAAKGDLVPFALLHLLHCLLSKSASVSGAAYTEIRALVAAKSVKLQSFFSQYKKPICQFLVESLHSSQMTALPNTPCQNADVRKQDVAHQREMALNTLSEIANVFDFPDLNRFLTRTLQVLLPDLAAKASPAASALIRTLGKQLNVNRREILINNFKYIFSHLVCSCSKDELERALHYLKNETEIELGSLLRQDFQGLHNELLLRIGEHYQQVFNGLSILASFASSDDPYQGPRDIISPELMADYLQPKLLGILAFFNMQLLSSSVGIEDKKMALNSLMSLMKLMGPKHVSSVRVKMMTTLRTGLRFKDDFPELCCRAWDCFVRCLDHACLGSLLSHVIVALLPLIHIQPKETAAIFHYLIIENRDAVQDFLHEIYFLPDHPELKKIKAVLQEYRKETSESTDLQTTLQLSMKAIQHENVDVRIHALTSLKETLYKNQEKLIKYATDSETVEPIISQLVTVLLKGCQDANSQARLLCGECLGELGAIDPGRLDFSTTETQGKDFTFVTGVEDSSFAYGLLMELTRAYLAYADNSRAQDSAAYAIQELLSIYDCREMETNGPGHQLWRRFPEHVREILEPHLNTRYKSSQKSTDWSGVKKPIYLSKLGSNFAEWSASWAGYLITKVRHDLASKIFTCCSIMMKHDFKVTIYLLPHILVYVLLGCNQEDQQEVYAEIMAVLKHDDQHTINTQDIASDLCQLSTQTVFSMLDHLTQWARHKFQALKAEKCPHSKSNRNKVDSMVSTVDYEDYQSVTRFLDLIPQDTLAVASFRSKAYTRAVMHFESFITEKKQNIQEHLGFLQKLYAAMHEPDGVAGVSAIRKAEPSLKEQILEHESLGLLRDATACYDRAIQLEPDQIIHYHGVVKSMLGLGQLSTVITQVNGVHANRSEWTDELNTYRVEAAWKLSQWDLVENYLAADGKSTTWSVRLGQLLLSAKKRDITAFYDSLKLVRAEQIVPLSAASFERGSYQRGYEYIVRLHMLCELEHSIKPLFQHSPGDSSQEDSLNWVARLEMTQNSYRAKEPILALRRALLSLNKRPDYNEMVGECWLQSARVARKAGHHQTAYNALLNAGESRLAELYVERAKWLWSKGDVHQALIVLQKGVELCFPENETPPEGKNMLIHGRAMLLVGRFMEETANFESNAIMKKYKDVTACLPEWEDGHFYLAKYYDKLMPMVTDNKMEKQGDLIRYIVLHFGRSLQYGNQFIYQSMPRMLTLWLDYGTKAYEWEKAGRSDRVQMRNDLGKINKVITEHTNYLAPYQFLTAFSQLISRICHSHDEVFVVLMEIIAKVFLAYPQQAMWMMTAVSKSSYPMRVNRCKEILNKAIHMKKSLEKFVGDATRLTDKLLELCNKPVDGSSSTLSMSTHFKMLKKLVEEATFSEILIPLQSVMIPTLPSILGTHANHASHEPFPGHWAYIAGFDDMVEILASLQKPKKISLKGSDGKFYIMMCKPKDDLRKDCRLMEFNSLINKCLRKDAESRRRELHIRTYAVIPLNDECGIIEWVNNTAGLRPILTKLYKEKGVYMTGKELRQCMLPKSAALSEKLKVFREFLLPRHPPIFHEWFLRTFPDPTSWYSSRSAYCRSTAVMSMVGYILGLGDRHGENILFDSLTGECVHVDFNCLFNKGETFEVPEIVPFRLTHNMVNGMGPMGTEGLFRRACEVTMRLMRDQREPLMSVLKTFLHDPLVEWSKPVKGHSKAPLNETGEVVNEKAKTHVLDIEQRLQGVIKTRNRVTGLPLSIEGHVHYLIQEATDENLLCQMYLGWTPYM
- METHOD DESCRIPTION: ATR Inhibition Assay (radioactive-phosphate incorporation)
- Assay type: biochemical
- COND: ATR Inhibition Ki(app); 10 μM ATP, 800 μM target peptide, 5 nM full-length ATR, 25° C.
pKi: −log10 of the molar value.
MEASURED METRIC: pKi

Below, each entry is followed by its recorded pKi result.
>>> df
                                   molecule      observed
0  Nc1ncc(-c2ccc(=O)n(C3CCCC3)c2)nc1-c1cc(-c2ccc(CNC3CC3)cc2)no1 [Compound I-92]        ≥ 8.30
1  Cc1cc(CN[C@H]2CCOC2)ccc1-c1nnc(-c2nc(-c3ccc(=O)n(C(C)C)c3)cnc2N)o1 [Compound I-13]        ≥ 8.30
2  CNCc1ccc(-c2cc(-c3nc(-c4ccc(=O)n(CC5CCCO5)c4)cnc3N)on2)cc1 (stereo not shown) [Compound I-86]        ≥ 8.30
3  Nc1ncc(-c2ccc(=O)[nH]c2)nc1-c1cc(-c2ccc(CNC3CC3)cc2)no1 [Compound I-111]        ≥ 8.30
4  CNCc1ccc(-c2nnc(-c3nc(-c4ccc(=O)n(C(C)C)c4C#N)cnc3N)o2)c(C)c1 [Compound I-151]  7.30 to 8.30

INPUT: Answer with reported pKi of Cc1cc(CNC(C)C)ccc1-c1nnc(-c2nc(-c3ccc(=O)n(C(C)C)c3)cnc2N)o1 [Compound I-20]
OUTPUT: ≥ 8.30

INPUT: Answer with reported pKi of CNCc1ccc(-c2nnc(-c3nc(-c4ccc(=O)n(C(C)CF)c4)cnc3N)o2)c(C)c1 (stereo not shown) [Compound I-31]
OUTPUT: 7.30 to 8.30

* * *

- ASSAY SYSTEM: UniProt:Q13535
- METHOD DESCRIPTION: ATR Inhibition Assay (radioactive-phosphate incorporation)
- Format: biochemical
- COND: ATR Inhibition Ki(app); 10 μM ATP, 800 μM target peptide, 5 nM full-length ATR, 25° C.
pKi: −log10 of the molar value.
# maps each entry to its pKi

Below, each entry is followed by its recorded pKi result.
>>> df
                                   compound  measured_metric  observed
0  CCC(C#N)(CC)n1cc(-c2cnc(N)c(-c3cc(-c4ccc(CNC)cc4)no3)n2)ccc1=O              pKi    ≥ 8.30
1  CCn1cc(-c2cnc(N)c(-c3nnc(-c4ccc(CNC)cc4OC)o3)n2)ccc1=O              pKi    ≥ 8.30
2  CC(C)(C#N)n1cc(-c2cnc(N)c(-c3cc(-c4ccc(CNC5CC5)cc4)no3)n2)ccc1=O              pKi    ≥ 8.30

INPUT: Tell me its pKi on UniProt:Q13535: CC(C)(C)NCc1ccc(-c2cc(-c3nc(-c4ccc(=O)n(C5CCCC5)c4)cnc3N)on2)cc1
OUTPUT: ≥ 8.30

INPUT: Tell me its pKi on UniProt:Q13535: CNCc1ccc(-c2nnc(-c3nc(-c4ccc(=O)n(C(C)C)c4)cnc3N)o2)cc1
OUTPUT: 7.30 to 8.30

INPUT: Tell me its pKi on UniProt:Q13535: CNCc1ccc(-c2cc(-c3nc(-c4c[nH]c(=O)c(CO)c4)cnc3N)on2)cc1
OUTPUT: ≥ 8.30

INPUT: Tell me its pKi on UniProt:Q13535: CCc1cc(-c2cnc(N)c(-c3cc(-c4ccc(CNC)cc4)no3)n2)cn(C(C)C)c1=O
OUTPUT: 7.00 to 7.30

INPUT: Tell me its pKi on UniProt:Q13535: CC(C)n1cc(-c2cnc(N)c(-c3cc(-c4ccc(C(N)CF)cc4)no3)n2)ccc1=O (centres unmarked)
OUTPUT: 7.30 to 8.30

* * *

# maps each entry to its Ki
- ASSAY SYSTEM: full-length ATR (Homo sapiens (Human))
- METHOD DESCRIPTION: ATR Inhibition Assay (radioactive-phosphate incorporation)
- Assay type: biochemical

INPUT: Answer with reported Ki of CNCc1cccc(-c2nnc(-c3nc(-c4ccc(=O)n(C(C)C)c4)cnc3N)o2)c1
OUTPUT: 5 to 50 nM

* * *

# maps each entry to its pKi
- ASSAY SYSTEM: full-length ATR (Homo sapiens (Human))
- METHOD DESCRIPTION: ATR Inhibition Assay (radioactive-phosphate incorporation)
- Format: biochemical
pKi: −log10 of the molar value.

Below, each entry is followed by its recorded pKi result.
>>> df
                                   compound                            assay_system  measured_metric      observed
0  CNCc1ccc(-c2nnc(-c3nc(-c4ccc(=O)n(C(C)C(=O)O)c4)cnc3N)o2)c(C)c1 (stereo not drawn) [Compound I-38]  full-length ATR (Homo sapiens (Human))              pKi  7.30 to 8.30
1  CNCc1ccc(-c2nnc(-c3nc(-c4ccc(=O)n(CCCN)c4)cnc3N)o2)cc1 [Compound I-5]  full-length ATR (Homo sapiens (Human))              pKi  7.00 to 7.30
2  CNCc1ccc(-c2nnc(-c3nc(-c4ccc(=O)n(CCO)c4)cnc3N)o2)cc1 [Compound I-4]  full-length ATR (Homo sapiens (Human))              pKi  7.30 to 8.30

INPUT: Answer with reported pKi of CC(C)(CO)NCc1ccc(-c2cc(-c3nc(-c4ccc(=O)n(C5CCCC5)c4)cnc3N)on2)cc1 [Compound I-52]
OUTPUT: 7.30 to 8.30

INPUT: Answer with reported pKi of CNCc1ccc(-c2nnc(-c3nc(-c4ccc(=O)n(C5CCOC5)c4)cnc3N)o2)c(OC)c1 (stereo not drawn) [Compound I-8]
OUTPUT: 7.30 to 8.30

INPUT: Answer with reported pKi of CCN(CC)C(=O)C(C)n1cc(-c2cnc(N)c(-c3cc(-c4ccc(CNC)cc4)no3)n2)ccc1=O (stereo not drawn) [Compound I-101]
OUTPUT: 7.30 to 8.30

* * *

# maps each entry to its pKi
- ASSAY SYSTEM: full-length ATR (Homo sapiens (Human), UniProt Q13535)
- METHOD DESCRIPTION: ATR Inhibition Assay (radioactive-phosphate incorporation)
- Type: biochemical
pKi: −log10 of the molar value.

Below, each entry is followed by its recorded pKi result.
>>> print(df.to_string())
                                   molecule                              assay_system  measured_metric      observed
0  CNCc1ccc(-c2nnc(-c3nc(-c4ccc(=O)n(CCOC)c4)cnc3N)o2)cc1  full-length ATR (Homo sapiens (Human), UniProt Q13535)              pKi  7.30 to 8.30
1  CC(C)n1cc(-c2cnc(N)c(-c3cc(-c4ccc(CNc5ccccc5)cc4)no3)n2)ccc1=O  full-length ATR (Homo sapiens (Human), UniProt Q13535)              pKi  7.00 to 7.30
2  Nc1ncc(-c2ccc(=O)n(C3CCCC3)c2)nc1-c1cc(-c2ccc(CN3CCCC3)cc2)no1  full-length ATR (Homo sapiens (Human), UniProt Q13535)              pKi  7.30 to 8.30
3  CNCc1ccc(-c2nnc(-c3nc(-c4ccc(=O)n(C5CCOC5)c4)cnc3N)o2)cc1 (stereo not drawn)  full-length ATR (Homo sapiens (Human), UniProt Q13535)              pKi  7.30 to 8.30
4  CNCc1cccc(-c2cc(-c3nc(-c4ccc(=O)n(C(C)C)c4)cnc3N)on2)c1  full-length ATR (Homo sapiens (Human), UniProt Q13535)              pKi  7.30 to 8.30

// next entry
INPUT: Answer with reported pKi of CNCc1ccc(-c2nnc(-c3nc(-c4ccc(=O)n(CCN(C)C)c4)cnc3N)o2)c(C)c1
OUTPUT: 7.30 to 8.30

Data provenance is patent US9630956B2.
